The following compounds are shown together with reported cell viability values.
# Test system: HCI13 (cells of an ER-positive luminal breast cancer xenograft)
# assay overview: cell viability (% of vehicle); higher = less cytotoxic
# cond: 10 µM; 72 h
When you answer, write just the number.

INSERT INTO results (compound, test_readout, observed_result) VALUES
  ('NC(CO)(CO)CO', 'cell viability', 58.4),
  ('CC1(C)SC2C(NC(=O)C(N)c3ccccc3)C(=O)N2C1C(=O)O.O.O.O (centres undefined) [Ampicillin Trihydrate]', 'cell viability', 143);

cell viability in this record for COC1C(O)CC(=O)OC(C)CC=CC=CC(OC2CCC(N(C)C)C(C)O2)C(C)CC(CC=O)C1OC1OC(C)C(OC2CC(C)(O)C(O)C(C)O2)C(N(C)C)C1O (centres undefined) : 78.9

cell viability in this record for COc1nc(N)nc2c1ncn2C1OC(CO)C(O)C1O (centres undefined) : 86.3

###

# Test system: WHIM30 (cells of a triple-negative basal-like breast cancer xenograft)
# assay overview: cell viability of combination (% of vehicle); higher = less cytotoxic
# cond: 1 µM; 72 h; partner dose: 10 nM
test readout: cell viability of combination

Past entries and their recorded results:
INSERT INTO results (compound, test_readout, observed_result) VALUES
  ('CNC(=O)c1cc(Oc2ccc(NC(=O)Nc3ccc(Cl)c(C(F)(F)F)c3)c(F)c2)ccn1 [Regorafenib] + CC(C)C[C@H](NC(=O)[C@H](CCc1ccccc1)NC(=O)CN1CCOCC1)C(=O)N[C@@H](Cc1ccccc1)C(=O)N[C@@H](CC(C)C)C(=O)[C@@]1(C)CO1', 'cell viability of combination', 22.4),
  ('CC(C)CC(NC(=O)C(NC(=O)c1cccc(-c2ccccc2)n1)C(C)O)B(O)O (centres undefined) + CC(C)C[C@H](NC(=O)[C@H](CCc1ccccc1)NC(=O)CN1CCOCC1)C(=O)N[C@@H](Cc1ccccc1)C(=O)N[C@@H](CC(C)C)C(=O)[C@@]1(C)CO1', 'cell viability of combination', 8.71),
  ('CN1CCC(COc2cnc(-c3cccc(Cn4nc(-c5cccc(C#N)c5)ccc4=O)c3)nc2)CC1 + CC(C)C[C@H](NC(=O)[C@H](CCc1ccccc1)NC(=O)CN1CCOCC1)C(=O)N[C@@H](Cc1ccccc1)C(=O)N[C@@H](CC(C)C)C(=O)[C@@]1(C)CO1', 'cell viability of combination', 26.9);

Now turn to the next compound.
cell viability of combination in this record for Nc1ncn(C2OC(CO)C(O)C2O)c(=O)n1 (centres undefined) [5-Azacytidine] + CC(C)C[C@H](NC(=O)[C@H](CCc1ccccc1)NC(=O)CN1CCOCC1)C(=O)N[C@@H](Cc1ccccc1)C(=O)N[C@@H](CC(C)C)C(=O)[C@@]1(C)CO1 : 20.7

###

The following compounds are shown together with reported cell viability values.
# Test system: HCI01 (cells of a triple-negative basal-like breast cancer xenograft)
# assay overview: cell viability (% of vehicle); higher = less cytotoxic
# cond: 10 µM; 72 h
When you answer, write just the number.

INSERT INTO measurements (compound, test_readout, observed_result) VALUES
  ('CO/C(O)=N/[C@H](C(=O)N1CC2(CC2)C[C@H]1c1ncc(-c2ccc3c(c2)C(F)(F)c2cc(-c4ccc5nc([C@@H]6[C@H]7CC[C@H](C7)N6C(=O)[C@@H](/N=C(\O)OC)C(C)C)[nH]c5c4)ccc2-3)[nH]1)C(C)C', 'cell viability', 103),
  ('CN1CCN2c3ncccc3Cc3ccccc3C2C1 (stereo not given)', 'cell viability', 66.7),
  ('CCCC(CCC)C(=O)O.CCCC(CCC)C(=O)[O-].[Na+] [Divalproex Sodium]', 'cell viability', 112),
  ('CCc1oc2ccccc2c1C(=O)c1cc(Br)c(O)c(Br)c1', 'cell viability', 65.9);

cell viability in this record for Cc1cn(-c2cc(/N=C(\O)c3ccc(C)c(Nc4nccc(-c5cnccn5)n4)c3)cc(C(F)(F)F)c2)cn1 : 89.5
